// provenance: the OPERA property sets (Mansouri et al. 2018)

measured_attribute: logP

{"molecule": "CC1=C(C)C(=O)C=CC1=O", "measured_attribute": "logP", "data_value": 1.23}
{"molecule": "CC(=O)OCN1C(=O)C=C(C)C1=O", "measured_attribute": "logP", "data_value": 0.45}
{"molecule": "O=[N+]([O-])c1ccc(Cl)c([N+](=O)[O-])c1", "measured_attribute": "logP", "data_value": 2.17}
{"molecule": "CCCN1CCOC2c3cc(O)ccc3CCC21 (stereo unspecified)", "measured_attribute": "logP", "data_value": 2.44}
{"molecule": "c1ccc2c(c1)ccc1cc3ccc4ccccc4c3cc12", "measured_attribute": "logP", "data_value": 6.54}
{"molecule": "COC(=O)C1=C(C)NC(C)=C(C(=O)OCC(C)C)C1c1ccccc1[N+](=O)[O-] (stereo unspecified)", "measured_attribute": "logP", "data_value": 3.26}

* * *

Details: 25 °C
Binning of solubility into classes: A = under 0.007 mM, B = from 0.007 mM up to 60 mM, C = 60 mM and over

{"molecule": "CCOC(=O)[C@H](CCc1ccccc1)N[C@@H](C)C(=O)N1CCC[C@H]1C(=O)O", "group_label": "B"}
{"molecule": "Clc1cccc2cccc(Cl)c12", "group_label": "A"}
{"molecule": "CNC(=O)Oc1cc(C)cc(C(C)C)c1", "group_label": "B"}
{"molecule": "Nc1ccc2c(c1)C(=O)c1ccccc1C2=O", "group_label": "A"}
{"molecule": "Nc1ccc2cc3ccccc3cc2c1", "group_label": "A"}
{"molecule": "CC(C)(C)c1cccc(C(C)(C)C)c1O", "group_label": "B"}
{"molecule": "CC(C)c1ccccc1", "group_label": "B"}
{"molecule": "CCOC=O", "group_label": "C"}
{"molecule": "CCC(CO)(CO)COCC(CC)(CO)CO", "group_label": "C"}
{"molecule": "C[Si](C)(C)O[Si](C)(C)C", "group_label": "A"}
{"molecule": "Cc1ccc(O)c(C)c1", "group_label": "C"}
{"molecule": "Nc1ccn([C@H]2CC[C@@H](CO)O2)c(=O)n1", "group_label": "C"}
{"molecule": "Oc1ccccc1Cl", "group_label": "C"}
{"molecule": "ClC1=C(Cl)C2(Cl)C3C4OC4C(Cl)C3C1(Cl)C2(Cl)Cl (centres undefined)", "group_label": "A"}

* * *

Details: 25 °C
Parameter threshold = 6 mM. Response is true (1) when solubility meets or exceeds it, else false (0).

{"compound": "CC1COCc2cc3c(cc21)C(C)(C)C(C)C3(C)C (stereo unspecified)", "group_label": "false (0)"}
{"compound": "c1ccc2cnncc2c1", "group_label": "true (1)"}
{"compound": "CCCCCCCCCCN", "group_label": "false (0)"}
{"compound": "CCC(=O)OCC(C)C", "group_label": "true (1)"}
{"compound": "CN(C)c1ccc(N=NS(=O)(=O)[O-])cc1.[Na+]", "group_label": "true (1)"}
{"compound": "CC(C)CCO[N+](=O)[O-]", "group_label": "false (0)"}
{"compound": "Nc1ccc(-c2ccc(N)c(Cl)c2)cc1Cl", "group_label": "false (0)"}
{"compound": "OCC(Br)CBr (stereo unspecified)", "group_label": "true (1)"}
{"compound": "CCCCCCCCCCCCN", "group_label": "false (0)"}
{"compound": "CCCCCN(CCCCC)CCCCC", "group_label": "false (0)"}
{"compound": "NNc1ccccc1", "group_label": "true (1)"}
{"compound": "COCCOC(=O)c1ccccc1C(=O)OCCOC", "group_label": "true (1)"}
{"compound": "O=C1CCC(N2C(=O)c3ccccc3C2=O)C(=O)N1 (stereo unspecified)", "group_label": "false (0)"}
{"compound": "Clc1ccc(Cl)c(-c2ccccc2Cl)c1", "group_label": "false (0)"}
{"compound": "Clc1cccc(Cl)c1Cl", "group_label": "false (0)"}
{"compound": "O=C(O)CCCOc1cc(Cl)c(Cl)cc1Cl", "group_label": "false (0)"}
{"compound": "OCc1cccc2ccccc12", "group_label": "true (1)"}
{"compound": "ClCOCCl", "group_label": "true (1)"}
{"compound": "CC1(C)C2CC3OC3(C)C1C2 (stereo unspecified)", "group_label": "false (0)"}
{"compound": "Oc1ccc(Cl)c2cccnc12", "group_label": "false (0)"}
{"compound": "NC(N)=O", "group_label": "true (1)"}
{"compound": "FC(F)(F)C(F)(Cl)Cl", "group_label": "false (0)"}
{"compound": "ClC1=C(Cl)C2(Cl)C3CCC4C(CCC3C1(Cl)C2(Cl)Cl)C1(Cl)C(Cl)=C(Cl)C4(Cl)C1(Cl)Cl (stereo unspecified)", "group_label": "false (0)"}
{"compound": "Cc1ccccc1C(C)C", "group_label": "false (0)"}
{"compound": "CCCCCCO[N+](=O)[O-]", "group_label": "false (0)"}
{"compound": "CCOP(=S)(OCC)SCSC(C)(C)C", "group_label": "false (0)"}
{"compound": "Cc1cccc(C)c1N", "group_label": "true (1)"}
{"compound": "CCCCOC(=O)c1ccccc1C(=O)OCc1ccccc1", "group_label": "false (0)"}
{"compound": "CCC(Cl)(Cl)Cl", "group_label": "true (1)"}
{"compound": "CCCCCCCCCCCCCCC", "group_label": "false (0)"}
{"compound": "CC(=O)N(C)N=O", "group_label": "true (1)"}
{"compound": "C=C(C)C(=O)OCC", "group_label": "true (1)"}
{"compound": "CCCCCOC(=O)CC", "group_label": "false (0)"}
{"compound": "CCCc1ccccc1", "group_label": "false (0)"}
{"compound": "CC(C)NC(C)C", "group_label": "true (1)"}
{"compound": "c1ccc(OCC2CO2)cc1 (stereo unspecified)", "group_label": "true (1)"}
{"compound": "O=c1n(Cl)c(=O)n(Cl)c(=O)n1Cl", "group_label": "true (1)"}
{"compound": "Brc1cc(Br)c(Br)cc1Br", "group_label": "false (0)"}
{"compound": "Oc1ccc(Cl)c(Cl)c1", "group_label": "true (1)"}
{"compound": "CC(C)CO[N+](=O)[O-]", "group_label": "true (1)"}
{"compound": "O=C(O)Cc1ccc(O)cc1", "group_label": "true (1)"}
{"compound": "CC(C)(C)NCC(O)COc1cccc2c1C[C@H](O)[C@H](O)C2 (stereo partly specified)", "group_label": "true (1)"}
{"compound": "OCC(CO)(CO)COCC(CO)(CO)CO", "group_label": "true (1)"}
{"compound": "C=C(C)C(=O)OC(C)(C)C", "group_label": "true (1)"}
{"compound": "CCN(CCO)c1ccccc1", "group_label": "true (1)"}
{"compound": "O=C1OC(=O)c2ccccc21", "group_label": "true (1)"}
{"compound": "CC(C)CCCCCOC(=O)c1ccccc1C(=O)OCCCCCC(C)C", "group_label": "false (0)"}
{"compound": "C=C(Cl)CCl", "group_label": "true (1)"}
{"compound": "CCCCC(CC)COP(=O)(Oc1ccccc1)Oc1ccccc1 (stereo unspecified)", "group_label": "false (0)"}
{"compound": "COCCc1ccc(OCC(O)CNC(C)C)cc1 (stereo unspecified)", "group_label": "true (1)"}
{"compound": "O=C(O)c1cccc(C(=O)O)c1", "group_label": "false (0)"}
{"compound": "CCOC(=O)N(C)N=O", "group_label": "true (1)"}
{"compound": "O=[N+]([O-])c1ccc(F)cc1O", "group_label": "true (1)"}
{"compound": "CC(F)(F)Cl", "group_label": "true (1)"}
{"compound": "Nc1ccc(Cc2ccc(N)cc2)cc1", "group_label": "false (0)"}
{"compound": "NS(=O)(=O)c1cc2c(s1)SCCC2=O", "group_label": "false (0)"}
{"compound": "c1ccc2c(c1)[nH]c1ccccc12", "group_label": "false (0)"}
{"compound": "O=C1c2ccccc2C(=O)c2c(O)c(O)cc(O)c21", "group_label": "false (0)"}
{"compound": "CCCc1ccc(O)cc1", "group_label": "true (1)"}
{"compound": "Cc1cc(C)c(C)c(O)c1", "group_label": "false (0)"}
{"compound": "O=C(O)C1CCCCC1", "group_label": "true (1)"}
{"compound": "FC(F)(Cl)Cl", "group_label": "false (0)"}
{"compound": "O=[N+]([O-])c1cc(Cl)ccc1Cl", "group_label": "false (0)"}
{"compound": "CCCCCCCCCCCCCC", "group_label": "false (0)"}
{"compound": "COC(=O)c1ccccc1C(=O)OC", "group_label": "true (1)"}
{"compound": "COC(CN(C)C(=O)Nc1nnc(C(C)(C)C)s1)OC", "group_label": "true (1)"}
